# target: p110β (Homo sapiens, UniProt P42338)
# Sequence (P42338 whole entry): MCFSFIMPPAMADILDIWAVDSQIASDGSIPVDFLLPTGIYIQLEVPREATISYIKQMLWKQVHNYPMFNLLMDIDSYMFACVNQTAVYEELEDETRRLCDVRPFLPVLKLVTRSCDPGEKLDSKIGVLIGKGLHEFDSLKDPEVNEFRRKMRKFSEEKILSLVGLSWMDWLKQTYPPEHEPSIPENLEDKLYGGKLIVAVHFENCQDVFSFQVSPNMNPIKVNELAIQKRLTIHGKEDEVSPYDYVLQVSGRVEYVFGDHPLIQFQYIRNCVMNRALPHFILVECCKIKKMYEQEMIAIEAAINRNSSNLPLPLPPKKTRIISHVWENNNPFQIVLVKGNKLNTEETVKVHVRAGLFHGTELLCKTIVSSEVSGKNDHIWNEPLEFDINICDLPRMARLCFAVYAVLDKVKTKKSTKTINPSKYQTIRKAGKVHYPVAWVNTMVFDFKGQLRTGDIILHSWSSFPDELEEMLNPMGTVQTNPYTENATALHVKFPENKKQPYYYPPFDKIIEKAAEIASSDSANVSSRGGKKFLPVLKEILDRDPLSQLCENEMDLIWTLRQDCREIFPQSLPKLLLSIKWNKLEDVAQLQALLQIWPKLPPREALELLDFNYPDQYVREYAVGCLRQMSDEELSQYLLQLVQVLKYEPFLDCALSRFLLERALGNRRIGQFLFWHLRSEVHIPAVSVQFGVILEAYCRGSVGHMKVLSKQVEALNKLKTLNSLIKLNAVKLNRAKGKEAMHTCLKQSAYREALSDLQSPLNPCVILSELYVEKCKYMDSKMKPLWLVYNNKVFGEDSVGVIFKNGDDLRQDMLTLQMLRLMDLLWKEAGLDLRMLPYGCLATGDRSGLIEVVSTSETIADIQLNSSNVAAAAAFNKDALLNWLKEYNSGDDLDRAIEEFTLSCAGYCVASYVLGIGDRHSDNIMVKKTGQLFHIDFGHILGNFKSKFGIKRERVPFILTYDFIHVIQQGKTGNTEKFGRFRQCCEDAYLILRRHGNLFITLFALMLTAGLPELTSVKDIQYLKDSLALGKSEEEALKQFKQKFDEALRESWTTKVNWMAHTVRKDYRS
# Sequence (P27986 whole entry partner): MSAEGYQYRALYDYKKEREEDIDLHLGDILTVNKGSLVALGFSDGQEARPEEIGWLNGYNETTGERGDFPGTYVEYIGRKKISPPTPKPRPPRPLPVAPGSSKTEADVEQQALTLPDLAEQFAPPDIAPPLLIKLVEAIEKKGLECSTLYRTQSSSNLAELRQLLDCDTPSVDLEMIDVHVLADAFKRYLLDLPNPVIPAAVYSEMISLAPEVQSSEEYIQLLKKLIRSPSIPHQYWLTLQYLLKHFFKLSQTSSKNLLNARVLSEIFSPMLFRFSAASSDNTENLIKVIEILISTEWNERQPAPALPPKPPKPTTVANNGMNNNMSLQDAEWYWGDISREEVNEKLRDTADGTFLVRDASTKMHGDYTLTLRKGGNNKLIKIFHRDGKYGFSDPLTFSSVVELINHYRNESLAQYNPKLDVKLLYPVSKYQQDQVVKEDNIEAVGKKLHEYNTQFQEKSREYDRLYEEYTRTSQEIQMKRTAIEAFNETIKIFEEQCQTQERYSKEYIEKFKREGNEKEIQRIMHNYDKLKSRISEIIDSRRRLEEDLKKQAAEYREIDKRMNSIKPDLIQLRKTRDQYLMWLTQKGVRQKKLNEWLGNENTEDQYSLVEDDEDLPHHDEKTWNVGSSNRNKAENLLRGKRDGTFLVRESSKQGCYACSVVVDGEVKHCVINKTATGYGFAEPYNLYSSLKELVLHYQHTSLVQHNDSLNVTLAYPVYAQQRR
# assay-text: SelectScreen Profiling IC50
# condition-details: cell-free; ATP Km app; p85α subunit; mean ± SEM; read-out: NU5455 IC50
measurement-kind: IC50 (µM)
Return type: number; implicit unit µM.

Request the reported IC50 associated with CN(C(=O)CN1CCOCC1)c1ccc2sc3c(-c4cccc5c(=O)cc(N6CC7CCC(C6)O7)oc45)cccc3c2c1 [NU5455] 9.32

---

# target: UniProt:Q13315
# Sequence (Q13315 whole entry): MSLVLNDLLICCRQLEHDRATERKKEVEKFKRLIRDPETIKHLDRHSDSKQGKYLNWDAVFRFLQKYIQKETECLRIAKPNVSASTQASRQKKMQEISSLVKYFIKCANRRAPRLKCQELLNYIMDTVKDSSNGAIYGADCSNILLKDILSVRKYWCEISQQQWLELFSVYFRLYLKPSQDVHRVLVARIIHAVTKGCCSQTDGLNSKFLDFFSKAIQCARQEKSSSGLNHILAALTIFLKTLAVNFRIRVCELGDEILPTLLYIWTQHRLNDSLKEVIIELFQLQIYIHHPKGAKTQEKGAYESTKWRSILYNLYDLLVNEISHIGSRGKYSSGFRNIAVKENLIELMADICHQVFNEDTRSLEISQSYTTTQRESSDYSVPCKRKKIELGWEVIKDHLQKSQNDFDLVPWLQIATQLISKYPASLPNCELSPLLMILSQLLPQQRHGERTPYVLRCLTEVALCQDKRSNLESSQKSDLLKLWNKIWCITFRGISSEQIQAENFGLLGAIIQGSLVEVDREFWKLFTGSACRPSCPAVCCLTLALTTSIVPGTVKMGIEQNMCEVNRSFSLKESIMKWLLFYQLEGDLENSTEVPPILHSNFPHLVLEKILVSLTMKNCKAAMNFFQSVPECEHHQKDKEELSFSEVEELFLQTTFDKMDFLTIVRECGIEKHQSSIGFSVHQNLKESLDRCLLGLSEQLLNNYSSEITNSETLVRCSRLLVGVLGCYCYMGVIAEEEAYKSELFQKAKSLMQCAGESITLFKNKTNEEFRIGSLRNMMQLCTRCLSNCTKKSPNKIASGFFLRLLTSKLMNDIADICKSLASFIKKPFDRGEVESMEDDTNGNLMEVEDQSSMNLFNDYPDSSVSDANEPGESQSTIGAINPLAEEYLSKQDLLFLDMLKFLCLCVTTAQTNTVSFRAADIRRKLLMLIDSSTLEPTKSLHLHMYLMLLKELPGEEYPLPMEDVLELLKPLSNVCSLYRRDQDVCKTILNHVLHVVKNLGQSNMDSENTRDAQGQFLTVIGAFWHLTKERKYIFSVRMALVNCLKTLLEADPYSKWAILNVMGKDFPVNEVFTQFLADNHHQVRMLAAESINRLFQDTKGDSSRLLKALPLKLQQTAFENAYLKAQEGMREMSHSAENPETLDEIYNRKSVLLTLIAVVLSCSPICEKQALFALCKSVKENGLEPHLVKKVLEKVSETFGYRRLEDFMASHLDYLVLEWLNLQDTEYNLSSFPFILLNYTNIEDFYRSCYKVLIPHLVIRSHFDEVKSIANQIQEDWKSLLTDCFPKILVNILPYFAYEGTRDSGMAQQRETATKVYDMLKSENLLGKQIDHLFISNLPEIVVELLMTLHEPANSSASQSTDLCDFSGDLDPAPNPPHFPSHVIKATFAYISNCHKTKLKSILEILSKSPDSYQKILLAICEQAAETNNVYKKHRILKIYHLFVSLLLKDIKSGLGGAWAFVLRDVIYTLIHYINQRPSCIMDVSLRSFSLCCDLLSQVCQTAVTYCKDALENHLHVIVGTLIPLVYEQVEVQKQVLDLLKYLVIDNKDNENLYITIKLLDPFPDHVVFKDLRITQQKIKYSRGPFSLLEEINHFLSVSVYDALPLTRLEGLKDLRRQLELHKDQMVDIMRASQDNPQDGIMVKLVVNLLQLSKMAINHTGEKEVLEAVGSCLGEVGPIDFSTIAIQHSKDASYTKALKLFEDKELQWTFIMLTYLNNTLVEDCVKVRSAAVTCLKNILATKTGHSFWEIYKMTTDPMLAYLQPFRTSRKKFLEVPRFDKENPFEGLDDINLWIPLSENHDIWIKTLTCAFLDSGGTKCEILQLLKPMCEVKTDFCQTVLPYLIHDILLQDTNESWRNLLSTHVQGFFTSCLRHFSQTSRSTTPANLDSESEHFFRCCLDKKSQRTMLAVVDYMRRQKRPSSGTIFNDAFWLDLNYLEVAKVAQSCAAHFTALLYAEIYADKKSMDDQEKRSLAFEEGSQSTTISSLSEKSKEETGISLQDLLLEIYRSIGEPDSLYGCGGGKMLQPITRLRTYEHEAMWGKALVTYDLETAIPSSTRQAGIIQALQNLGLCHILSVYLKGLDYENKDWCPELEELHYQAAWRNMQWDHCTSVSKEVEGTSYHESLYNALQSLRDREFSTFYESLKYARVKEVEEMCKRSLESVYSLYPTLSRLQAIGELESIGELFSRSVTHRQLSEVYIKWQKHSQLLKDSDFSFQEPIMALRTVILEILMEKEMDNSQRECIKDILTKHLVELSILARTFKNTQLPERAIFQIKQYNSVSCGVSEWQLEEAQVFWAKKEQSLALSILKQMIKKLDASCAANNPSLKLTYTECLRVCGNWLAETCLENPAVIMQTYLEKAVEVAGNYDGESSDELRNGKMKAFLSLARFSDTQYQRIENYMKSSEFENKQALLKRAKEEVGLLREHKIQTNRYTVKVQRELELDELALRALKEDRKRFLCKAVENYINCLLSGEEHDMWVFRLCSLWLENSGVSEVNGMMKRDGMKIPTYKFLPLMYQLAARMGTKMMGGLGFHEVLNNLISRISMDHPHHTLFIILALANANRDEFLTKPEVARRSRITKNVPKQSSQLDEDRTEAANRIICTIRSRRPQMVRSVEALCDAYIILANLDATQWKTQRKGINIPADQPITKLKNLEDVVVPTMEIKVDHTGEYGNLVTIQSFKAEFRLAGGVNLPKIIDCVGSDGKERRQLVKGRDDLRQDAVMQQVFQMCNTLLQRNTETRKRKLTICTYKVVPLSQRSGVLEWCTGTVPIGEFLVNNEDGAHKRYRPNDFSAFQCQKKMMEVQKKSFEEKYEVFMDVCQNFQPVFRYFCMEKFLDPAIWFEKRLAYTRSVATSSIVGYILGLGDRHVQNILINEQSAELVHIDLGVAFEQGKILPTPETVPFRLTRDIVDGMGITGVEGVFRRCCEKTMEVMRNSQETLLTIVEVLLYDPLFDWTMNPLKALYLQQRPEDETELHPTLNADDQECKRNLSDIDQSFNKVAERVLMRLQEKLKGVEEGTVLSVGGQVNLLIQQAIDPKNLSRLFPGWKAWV
measurement-kind: IC50

Fill in the recorded IC50 for this compound, with UniProt:Q13315 as test system: CN(C(=O)CN1CCOCC1)c1ccc2sc3c(-c4cccc5c(=O)cc(N6CC7CCC(C6)O7)oc45)cccc3c2c1 [NU5455] > 10 µM
